# Tested on: 699152-130-R-J1-PDC complex spheroid viability;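 note: spheroids exposed to agents for 7 days before viability reading; percent of DMSO vehicle control viability so 100% = vehicle and 0% = no viable signal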
# EXPERIMENT: Anticancer human tumor 699152-130-R-J1-PDC patient-derived pancreatic carcinoma cell line growth inhibition [POLQ]
# CONDITION DESCRIPTION: second compound 10 µM; first compound 0.01 µM; active compounds read low
Below is a list of entries, each paired with its recorded viability, T/C value.
Please give a number only; it is taken to be in %.

These recorded examples may help you get a feel for the data.
[[record]]
compound = "C=CCn1c(=O)c2cnc(Nc3ccc(N4CCN(C)CC4)cc3)nc2n1-c1cccc(C(C)(C)O)n1 + COC1C(OC(N)=O)C(O)C(Oc2ccc3c(O)c(NC(=O)c4ccc(O)c(CC=C(C)C)c4)c(=O)oc3c2C)OC1(C)C"
subject_of_test = "699152-130-R-J1-PDC complex spheroid viability"
measured_parameter = "viability, T/C"
numeric_value = 101

[[record]]
compound = "C=CCn1c(=O)c2cnc(Nc3ccc(N4CCN(C)CC4)cc3)nc2n1-c1cccc(C(C)(C)O)n1 + Cc1cccc(N(C)C(=O)C2C(O)CCN2c2nc(C)cc(C(F)(F)F)c2C#N)c1"
subject_of_test = "699152-130-R-J1-PDC complex spheroid viability"
measured_parameter = "viability, T/C"
numeric_value = 89.3

[[record]]
compound = "CCc1c2c(nc3ccc(O)cc13)-c1cc3c(c(=O)n1C2)COC(=O)[C@]3(O)CC + COC1C(OC(N)=O)C(O)C(Oc2ccc3c(O)c(NC(=O)c4ccc(O)c(CC=C(C)C)c4)c(=O)oc3c2C)OC1(C)C"
subject_of_test = "699152-130-R-J1-PDC complex spheroid viability"
measured_parameter = "viability, T/C"
numeric_value = 55.7

[[record]]
compound = "CC[C@@]1(O)C(=O)OCc2c1cc1n(c2=O)Cc2cc3c(CN(C)C)c(O)ccc3nc2-1 + Cc1cccc(N(C)C(=O)C2C(O)CCN2c2nc(C)cc(C(F)(F)F)c2C#N)c1"
subject_of_test = "699152-130-R-J1-PDC complex spheroid viability"
measured_parameter = "viability, T/C"
numeric_value = 91.8


Here is another compound to look at.
What does the record list as viability, T/C for CC[C@@]1(O)C(=O)OCc2c1cc1n(c2=O)Cc2cc3c(CN(C)C)c(O)ccc3nc2-1 + COC1C(OC(N)=O)C(O)C(Oc2ccc3c(O)c(NC(=O)c4ccc(O)c(CC=C(C)C)c4)c(=O)oc3c2C)OC1(C)C ?
95.4
